Hello, the source for this data is patent US5710129A, in case you need it.

Square brackets hold non-standard residues; d marks the D form. Peptide text beside a SMILES is read from it. * marks the point of attachment. Tyr(3,5-(NO2)2) = N[C@@H](Cc1cc([N+](=O)[O-])c(O)c([N+](=O)[O-])c1)C(=O)O; Acetyl(9-fluorenyl) = O=C(CC1c2ccccc2-c2ccccc21)*; Acetyl(1-naphthyl) = O=C(Cc1cccc2ccccc12)*; 1Nal = N[C@@H](Cc1cccc2ccccc12)C(=O)O
Here's a batch of compounds along with measured IC50 for pp72^syk (163-265) (Homo sapiens).
Field: numeric (µM). Do not append units.

// solved cases for IC50 follow
COMPOUND	TEST_SYSTEM	RESULT_TYPE	UNITS_LABEL	READOUT_NUMBER
CC(=O)N[C@@H](Cc1cccc2ccccc12)C(=O)N[C@@H](Cc1cc([N+](=O)[O-])c(O)c([N+](=O)[O-])c1)C(=O)N[C@@H](CCC(=O)O)C(=O)N[C@H](C(=O)N[C@@H](CC(C)C)C(N)=O)[C@@H](C)O (Ac-[1Nal][Tyr(3,5-(NO2)2)]ETL-NH2)	pp72^syk (163-265) (Homo sapiens)	IC50	µM	200
CC(C)C[C@H](NC(=O)[C@@H](NC(=O)[C@H](CCC(=O)O)NC(=O)[C@H](Cc1cc([N+](=O)[O-])c(O)c([N+](=O)[O-])c1)NC(=O)CC1c2ccccc2-c2ccccc21)[C@@H](C)O)C(N)=O ({Acetyl(9-fluorenyl)}-[Tyr(3,5-(NO2)2)]ETL-NH2)	pp72^syk (163-265) (Homo sapiens)	IC50	µM	26

Next compound, please.
Lookup: Item under review: CC(C)C[C@H](NC(=O)[C@@H](NC(=O)[C@H](CCC(=O)O)NC(=O)[C@H](Cc1cc([N+](=O)[O-])c(O)c([N+](=O)[O-])c1)NC(=O)Cc1cccc2ccccc12)[C@@H](C)O)C(N)=O ({Acetyl(1-naphthyl)}-[Tyr(3,5-(NO2)2)]ETL-NH2) . Reported IC50?
Found: 24

====

Square brackets hold non-standard residues; d marks the D form. Peptide text beside a SMILES is read from it. * marks the point of attachment. Tyr(3,5-(NO2)2) = N[C@@H](Cc1cc([N+](=O)[O-])c(O)c([N+](=O)[O-])c1)C(=O)O; Acetyl(9-fluorenyl) = O=C(CC1c2ccccc2-c2ccccc21)*; Acetyl(2-naphthyl) = O=C(Cc1ccc2ccccc2c1)*; Hydrocinnamoyl = O=C(CCc1ccccc1)*
Record type: pIC50 measurement. Applies to: pp60^src (144-251) (Homo sapiens, UniProt P12931)
Hey, just a heads up that pIC50 is the negative log base 10 of the concentration in molar.

COMPOUND	RESULT_TYPE	READOUT_NUMBER
CC(C)C[C@H](NC(=O)[C@@H](NC(=O)[C@H](CCC(=O)O)NC(=O)[C@H](Cc1cc([N+](=O)[O-])c(O)c([N+](=O)[O-])c1)NC(=O)Cc1ccc2ccccc2c1)[C@@H](C)O)C(N)=O ({Acetyl(2-naphthyl)}-[Tyr(3,5-(NO2)2)]ETL-NH2)	pIC50	3.30
CC(=O)N[C@H](Cc1ccccc1)C(=O)N[C@@H](Cc1cc([N+](=O)[O-])c(O)c([N+](=O)[O-])c1)C(=O)N[C@@H](CCC(=O)O)C(=O)N[C@H](C(=O)N[C@@H](CC(C)C)C(N)=O)[C@@H](C)O (Ac-[dF][Tyr(3,5-(NO2)2)]ETL-NH2)	pIC50	3.30
CC(C)C[C@H](NC(=O)[C@@H](NC(=O)[C@H](CCC(=O)O)NC(=O)[C@H](Cc1cc([N+](=O)[O-])c(O)c([N+](=O)[O-])c1)NC(=O)CCc1ccccc1)[C@@H](C)O)C(N)=O (Hydrocinnamoyl-[Tyr(3,5-(NO2)2)]ETL-NH2)	pIC50	3.39

API: the following record is the query input.
Lookup: Field request: pIC50 | item: CC(C)C[C@H](NC(=O)[C@@H](NC(=O)[C@H](CCC(=O)O)NC(=O)[C@H](Cc1cc([N+](=O)[O-])c(O)c([N+](=O)[O-])c1)NC(=O)CC1c2ccccc2-c2ccccc21)[C@@H](C)O)C(N)=O ({Acetyl(9-fluorenyl)}-[Tyr(3,5-(NO2)2)]ETL-NH2)
Found: 3.15

====

- TEST_SYSTEM: pp70^ZAP (1-259) (Homo sapiens)
- Sequence (P43403 1-259): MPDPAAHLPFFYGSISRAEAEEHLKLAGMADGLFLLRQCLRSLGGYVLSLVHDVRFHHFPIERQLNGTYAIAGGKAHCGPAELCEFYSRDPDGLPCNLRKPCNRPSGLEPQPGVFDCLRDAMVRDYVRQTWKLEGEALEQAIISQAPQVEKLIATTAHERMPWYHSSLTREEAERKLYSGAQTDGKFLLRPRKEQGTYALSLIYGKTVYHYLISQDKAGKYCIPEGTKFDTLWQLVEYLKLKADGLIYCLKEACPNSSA
- EXPERIMENT: Tandem ZAP competitive binding assay, surface plasmon resonance (BIAcore)
- TEST_PARAMETERS: 10 nM protein; ζ-chain ITAM-1 of human T-cell receptor as ligand; read-out: N,CZap IC-50
pIC50: −log10 of the molar value. Square brackets hold non-standard residues; d marks the D form. Peptide text beside a SMILES is read from it. * marks the point of attachment. Tyr(3,5-(NO2)2) = N[C@@H](Cc1cc([N+](=O)[O-])c(O)c([N+](=O)[O-])c1)C(=O)O; PhAc = O=C(Cc1ccccc1)*
# key: entry, value: pIC50

Lookup: Value lookup for pIC50; key = CC(C)C[C@H](NC(=O)[C@@H](NC(=O)[C@H](CCC(=O)O)NC(=O)[C@H](Cc1cc([N+](=O)[O-])c(O)c([N+](=O)[O-])c1)NC(=O)Cc1ccccc1)[C@@H](C)O)C(N)=O (PhAc-[Tyr(3,5-(NO2)2)]ETL-NH2)
Found: < 3.00

====

- TEST_SYSTEM: pp72^syk (1-265) (Homo sapiens, UniProt P43405)
Square brackets hold non-standard residues; d marks the D form. Peptide text beside a SMILES is read from it. * marks the point of attachment. Tyr(3,5-(NO2)2) = N[C@@H](Cc1cc([N+](=O)[O-])c(O)c([N+](=O)[O-])c1)C(=O)O; Acetyl(9-fluorenyl) = O=C(CC1c2ccccc2-c2ccccc21)*; Propanoyl(3,3-Ph2) = O=C(CC(c1ccccc1)c1ccccc1)*; Acetyl(1-naphthyl) = O=C(Cc1cccc2ccccc12)*; 1Nal = N[C@@H](Cc1cccc2ccccc12)C(=O)O; 2Naphthoyl = O=C(c1ccc2ccccc2c1)*; Hydrocinnamoyl = O=C(CCc1ccccc1)*
Form field: pIC50 (one value per entry).
Conceptually, pIC50 converts a concentration in mol/L into minus its log10.

COMPOUND	pIC50
CC(=O)N[C@@H](Cc1cccc2ccccc12)C(=O)N[C@@H](Cc1cc([N+](=O)[O-])c(O)c([N+](=O)[O-])c1)C(=O)N[C@@H](CCC(=O)O)C(=O)N[C@H](C(=O)N[C@@H](CC(C)C)C(N)=O)[C@@H](C)O (Ac-[1Nal][Tyr(3,5-(NO2)2)]ETL-NH2)	3.10
CC(C)C[C@H](NC(=O)[C@@H](NC(=O)[C@H](CCC(=O)O)NC(=O)[C@H](Cc1cc([N+](=O)[O-])c(O)c([N+](=O)[O-])c1)NC(=O)c1ccc2ccccc2c1)[C@@H](C)O)C(N)=O (2Naphthoyl-[Tyr(3,5-(NO2)2)]ETL-NH2)	3.42
CC(C)C[C@H](NC(=O)[C@@H](NC(=O)[C@H](CCC(=O)O)NC(=O)[C@H](Cc1cc([N+](=O)[O-])c(O)c([N+](=O)[O-])c1)NC(=O)CCc1ccccc1)[C@@H](C)O)C(N)=O (Hydrocinnamoyl-[Tyr(3,5-(NO2)2)]ETL-NH2)	3.34

Lookup: // fetch pp72^syk (1-265) (Homo sapiens, UniProt P43405) pIC50 for CC(C)C[C@H](NC(=O)[C@@H](NC(=O)[C@H](CCC(=O)O)NC(=O)[C@H](Cc1cc([N+](=O)[O-])c(O)c([N+](=O)[O-])c1)NC(=O)CC1c2ccccc2-c2ccccc21)[C@@H](C)O)C(N)=O ({Acetyl(9-fluorenyl)}-[Tyr(3,5-(NO2)2)]ETL-NH2)
Found: 4.30

Lookup: // query: CC(C)C[C@H](NC(=O)[C@@H](NC(=O)[C@H](CCC(=O)O)NC(=O)[C@H](Cc1cc([N+](=O)[O-])c(O)c([N+](=O)[O-])c1)NC(=O)Cc1cccc2ccccc12)[C@@H](C)O)C(N)=O ({Acetyl(1-naphthyl)}-[Tyr(3,5-(NO2)2)]ETL-NH2)
Found: 4.00

Lookup: # repeat for CC(C)C[C@H](NC(=O)[C@@H](NC(=O)[C@H](CCC(=O)O)NC(=O)[C@H](Cc1cc([N+](=O)[O-])c(O)c([N+](=O)[O-])c1)NC(=O)CC(c1ccccc1)c1ccccc1)[C@@H](C)O)C(N)=O ({Propanoyl(3,3-Ph2)}-[Tyr(3,5-(NO2)2)]ETL-NH2)
Found: 4.00

====

Square brackets hold non-standard residues; d marks the D form. Peptide text beside a SMILES is read from it. * marks the point of attachment. Tyr(3,5-(NO2)2) = N[C@@H](Cc1cc([N+](=O)[O-])c(O)c([N+](=O)[O-])c1)C(=O)O; Propanoyl(3,3-Ph2) = O=C(CC(c1ccccc1)c1ccccc1)*; Acetyl(2-naphthyl) = O=C(Cc1ccc2ccccc2c1)*; Fmoc = O=C(OCC1c2ccccc2-c2ccccc21)*; 2Naphthoyl = O=C(c1ccc2ccccc2c1)*; Hydrocinnamoyl = O=C(CCc1ccccc1)*; PhAc = O=C(Cc1ccccc1)*
The following compounds each carry a recorded pIC50 for pp72^syk (163-265) (Homo sapiens, UniProt P43405).
Entry type: numeric. Quantity: pIC50, the -log10 of concentration in molar units.

Lookup: Fill in: pIC50 of CC(C)C[C@H](NC(=O)[C@@H](NC(=O)[C@H](CCC(=O)O)NC(=O)[C@H](Cc1cc([N+](=O)[O-])c(O)c([N+](=O)[O-])c1)NC(=O)CC(c1ccccc1)c1ccccc1)[C@@H](C)O)C(N)=O ({Propanoyl(3,3-Ph2)}-[Tyr(3,5-(NO2)2)]ETL-NH2) is ___
Found: 4.82

Lookup: Request: CC(=O)N[C@@H](Cc1ccccc1)C(=O)N[C@@H](Cc1cc([N+](=O)[O-])c(O)c([N+](=O)[O-])c1)C(=O)N[C@@H](CCC(=O)O)C(=O)N[C@H](C(=O)N[C@@H](CC(C)C)C(N)=O)[C@@H](C)O (Ac-F[Tyr(3,5-(NO2)2)]ETL-NH2)
Found: 3.70

Lookup: Proceed to CC(C)C[C@H](NC(=O)[C@@H](NC(=O)[C@H](CCC(=O)O)NC(=O)[C@H](Cc1cc([N+](=O)[O-])c(O)c([N+](=O)[O-])c1)NC(=O)Cc1ccccc1)[C@@H](C)O)C(N)=O (PhAc-[Tyr(3,5-(NO2)2)]ETL-NH2)
Found: 4.15

Lookup: Note, next up: CC(C)C[C@H](NC(=O)[C@@H](NC(=O)[C@H](CCC(=O)O)NC(=O)[C@H](Cc1cc([N+](=O)[O-])c(O)c([N+](=O)[O-])c1)NC(=O)Cc1ccc2ccccc2c1)[C@@H](C)O)C(N)=O ({Acetyl(2-naphthyl)}-[Tyr(3,5-(NO2)2)]ETL-NH2)
Found: 4.70

Lookup: What do you have for CC(C)C[C@H](NC(=O)[C@@H](NC(=O)[C@H](CCC(=O)O)NC(=O)[C@H](Cc1cc([N+](=O)[O-])c(O)c([N+](=O)[O-])c1)NC(=O)c1ccc2ccccc2c1)[C@@H](C)O)C(N)=O (2Naphthoyl-[Tyr(3,5-(NO2)2)]ETL-NH2) ?
Found: 4.46

Lookup: Do the same for CC(C)C[C@H](NC(=O)[C@@H](NC(=O)[C@H](CCC(=O)O)NC(=O)[C@H](Cc1cc([N+](=O)[O-])c(O)c([N+](=O)[O-])c1)NC(=O)OCC1c2ccccc2-c2ccccc21)[C@@H](C)O)C(N)=O [ETLNH2] (Fmoc-[Tyr(3,5-(NO2)2)]ETL-NH2) please
Found: 4.52

Lookup: One more compound: CC(C)C[C@H](NC(=O)[C@@H](NC(=O)[C@H](CCC(=O)O)NC(=O)[C@H](Cc1cc([N+](=O)[O-])c(O)c([N+](=O)[O-])c1)NC(=O)CCc1ccccc1)[C@@H](C)O)C(N)=O (Hydrocinnamoyl-[Tyr(3,5-(NO2)2)]ETL-NH2)
Found: 4.96

Lookup: What about CC(=O)N[C@H](Cc1ccccc1)C(=O)N[C@@H](Cc1cc([N+](=O)[O-])c(O)c([N+](=O)[O-])c1)C(=O)N[C@@H](CCC(=O)O)C(=O)N[C@H](C(=O)N[C@@H](CC(C)C)C(N)=O)[C@@H](C)O (Ac-[dF][Tyr(3,5-(NO2)2)]ETL-NH2) ?
Found: 4.30
